conditions: bacteroides thetaiotaomicron, 12 h, 2 µM
Description: The drug is tested on Bacteroides thetaiotaomicron strain: 7330 for biotransformation. The drug concentrations were measured before and after a 12-h incubation by liquid-chromatography-coupled mass spectrometry (LC–MS)
READOUT KIND: Bacterial Biotransformation

[
  {
    "MOLECULE": "OCCN1CCN(CCCN2c3ccccc3Sc3ccc(C(F)(F)F)cc32)CC1 [FLUPHENAZINE]",
    "ASSAY VALUE": "Compound metabolized"
  },
  {
    "MOLECULE": "CC(=O)O[C@]1(C(C)=O)CC[C@H]2[C@@H]3C=C(C)C4=CC(=O)CC[C@]4(C)[C@H]3CC[C@@]21C [MEGESTROL ACETATE]",
    "ASSAY VALUE": "Compound metabolized"
  },
  {
    "MOLECULE": "Cc1nc2n(c(=O)c1CCN1CCC(c3noc4cc(F)ccc34)CC1)CCCC2 [RISPERIDONE]",
    "ASSAY VALUE": "Compound NOT metabolized"
  },
  {
    "MOLECULE": "CC(Oc1c(Cl)cccc1Cl)C1=NCCN1 (configuration not stated) [LOFEXIDINE]",
    "ASSAY VALUE": "Compound metabolized"
  },
  {
    "MOLECULE": "CSc1ccc2c(c1)C(N1CCN(C)CC1)Cc1ccccc1S2.O=C(O)/C=C\\C(=O)O (configuration not stated)",
    "ASSAY VALUE": "Compound NOT metabolized"
  },
  {
    "MOLECULE": "CC[C@H](C)C(=O)O[C@H]1C[C@@H](C)C=C2C=C[C@H](C)[C@H](CC[C@@H]3C[C@@H](O)CC(=O)O3)[C@H]21 [LOVASTATIN]",
    "ASSAY VALUE": "Compound metabolized"
  },
  {
    "MOLECULE": "CC(=O)O[C@]1(C(C)=O)CC[C@H]2[C@@H]3C=C(Cl)C4=CC(=O)[C@@H]5C[C@@H]5[C@]4(C)[C@H]3CC[C@@]21C [CYPROTERONE ACETATE]",
    "ASSAY VALUE": "Compound metabolized"
  }
]
